TESTED TARGET: human GLP-1 receptor (human, UniProt P43220 24-463)
PROCEDURE TEXT: cell-based or functional assay
Numbered stars: 1 amine (or outer) side, 2 acyl side, 3 side chain; on linkers, the order of the positions; unused ones are H or OH. Square brackets hold non-standard residues; d marks the D form. Side chains are listed from the residue outwards. Ends that are not written are not given here. * marks the point of attachment. γGlu = O=C(O)[C@H](CCC(=O)[*:2])N[*:1]; Stearoyl = CCCCCCCCCCCCCCCCCC(=O)*; Palmitoyl = CCCCCCCCCCCCCCCC(=O)*; AEEA = NCCOCCOCC(=O)O; Aib = CC(C)(N)C(=O)O
RESULT TYPE: EC50 hGLP-1R (cAMP formation) (pM)
The response must be a number in pM with no trailing unit.

H[Aib]HGTFTSDLSKQK([γGlu-Stearoyl])EEEAVRLFIEWLKAGGPSSGAPPPS-NH2 [SEQ ID NO: 7]    6.5
H[Aib]QGTFTSDLSKQK([γGlu-Stearoyl])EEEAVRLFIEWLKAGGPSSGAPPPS-NH2 [SEQ ID NO: 6]    9.4
H[dS]HGTFTSDLSKQK([γGlu-Palmitoyl])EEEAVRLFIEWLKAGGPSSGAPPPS-NH2 [SEQ ID NO: 14]    4.1
HSHGTFTSDLSKQK([γGlu-Stearoyl])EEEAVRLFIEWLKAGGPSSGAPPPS-NH2 [SEQ ID NO: 10]    3.4

Task: What does the record list as EC50 hGLP-1R (cAMP formation) for H[Aib]HGTFTSDLSKQK([γGlu-Palmitoyl])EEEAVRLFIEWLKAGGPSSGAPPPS-NH2 [SEQ ID NO: 12] ?
Output: 3.3

Task: What does the record list as EC50 hGLP-1R (cAMP formation) for H-H[Aib]HGTFTSDLSKQK([AEEA-AEEA-γGlu-Stearoyl])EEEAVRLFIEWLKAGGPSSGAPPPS-NH2 [SEQ ID NO: 28] ?
Output: 3.8

Task: What does the record list as EC50 hGLP-1R (cAMP formation) for H-H[Aib]HGTFTSDLSKQK([AEEA-AEEA-AEEA-Stearoyl])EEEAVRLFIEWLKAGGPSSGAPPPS-NH2 [SEQ ID NO: 29] ?
Output: 4.7
